System: nude mice, LX-1 lung xenograft intrarenal, tumor weight T/C
protocol-summary: NCI In Vivo Anticancer Drug Screen. Data for tumor model Human Lung LX-1 Xenograft (intrarenal inoculation) in NU/NU Swiss (nude) mice
run-parameters: endpoint: mean tumor weight change; dose: 25.0 mg/kg/injection; schedule: Q01DX010 (sc); vehicle: water; higher = larger tumour
Records with an inconclusive call do not appear.
endpoint: T/C

Worked cases, T/C given:
COc1cccc2c1C(=O)c1c(O)c3c(c(O)c1C2=O)C[C@@](O)(C(C)=O)C[C@@H]3OC1CC(N(Cc2ccccc2)Cc2ccccc2)C(O)C(C)O1 (stereo partly drawn) : 64 % of control
O=C(Nc1ccc(C2=NCCN2)cc1)c1ccc(C(=O)Nc2ccc(C3=NCCN3)cc2)c(Cl)c1 : 71 % of control

I am curious: what T/C value has been reported for `O=C1C(=O)c2ccccc2C(O)=C1CC=C(Cl)Cl` ?
255 % of control
